FYI, the data here is from the EternaBench riboswitch data.

Test system: MS2 coat protein
Test: apparent Kd, MS2 coat protein; higher = weaker binding; RNA-MaP array; FMN 200 µM where present
Conditions: ligand present: flavin mononucleotide; designed as: OFF switch for flavin mononucleotide
measuredProperty: apparent Kd (nM)
One number for each entry, in nM.

seq	measuredProperty	readoutNumber
AGGUAGUCAGGAUAUUAGUGGUAGAGGGAUAACUUUAUUGUUGAGAAGGGACAUGAGGAUCACCCAUGUUUUGU	apparent Kd	32.5
CCUCGACAUGAGGAUCACCCAUGUCAGGAUAUUGUGUUUCGGGUUUUUUACCGUUAGGCAAGAAGGGAUGUGUG	apparent Kd	40.2
GUUUUGGGAGGAUAUAUGUGGAUUAUUUUUGUAUGUUGUUUACAUGAGGAUCACCCAUGUAGAAGGUCUAGAGC	apparent Kd	211
AAAUUAAGAAGAGGAUAUUGACAUGAGGAUCACCCAUGUAUUUGGGAGUGUUUACUGAAUUCUUACGAGAAGGCUUACGAACUU	apparent Kd	190
GGUGCGUAUGUGAGGAUAUGCUGGUCCUUGGAUCGGCAGAAGGUACAUGAGGAUCACCCAUGUGGUGUCGUUCC	apparent Kd	289

State recorded apparent Kd for all listed sequences.
1. GGAUGACAAAGUCAUCCUUAACGAACAUGAGGAUCACCCAUGUAGGAUAUGCUACUCAAAGAGUAGCAGAAGGACAUGUGUCUU
2. CCUCCCUGAGGAUAUCCACCCUCAUACAUGAGGAUCACCCAUGUUCAUCCGUGGCUACCCGGAGAAGGCAGCUCUG

1: 159; 2: 49.7

---

Test system: MS2 coat protein
Assay: apparent Kd, MS2 coat protein; higher = weaker binding; RNA-MaP array
Conditions: designed as: OFF switch for flavin mononucleotide; no ligand
measuredProperty: apparent Kd (µM)
Answers are plain numbers, in µM.

Reference set, count: 4
seq	apparent Kd [µM]
GAUCAACAUGAGGAUCACCCAUGUUAGGAUAUCACACCGGAAAGUGAAAUGCUUUUCUUGAGAAGGAACAAGGC	0.00791
ACGAGCCUAGGAUAUACAUGAGGAUCACCCAUGUGACUGAACACUCCGGUAUGUGCGGGUAGAAGGAGGUUCCA	0.0163
AAAACUAAAGUCAGGAUAUAACGAAUCGAAGAUAGAUAGAAGGGACAUGAGGAUCACCCAUGUGAGGAAGACAA	0.0131
UGUCAGGUCCAUAACAUGAGGAUCACCCAUGUAAGGCAUGAGCAGGAUAUCAAAAGUCGUAAGACAGAGAAGGGCUAAAUGACC	0.007

Please look at the items below and tell me apparent Kd for each one, in order.
1. AGCGUUGCAGAGAAGGCGGUAUGAGUUACGCUCUCACACAUGAGGAUCACCCAUGUAAUGACGUCCGAGGAUAUCUCACAACUC
2. CCUUAAGCAUAAGGAUAUAAGUUUUGACUAAGUUUAGAAGGUAUGCUUGCAAGAUCCGGCAAUAACAUGAGGAUCACCCAUGUG
3. GGUGUUCCUCUAGGAUAUAGCGAUACAUGAGGAUCACCCAUGUUACUCCAGCGCGGCGGAUCGCUCUAGAAGGAGACAUAGCCA

1. 0.00547
2. 0.0276
3. 0.0751

---

Give apparent Kd for every item shown.
Test system: MS2 coat protein
Experiment: apparent Kd, MS2 coat protein; higher = weaker binding; RNA-MaP array
Settings: ligand present: flavin mononucleotide; designed as: ON switch for flavin mononucleotide
The number alone won't do; follow it with the unit.

Example cases with answers are listed next.
seq	apparent Kd
UUCUUACAUGAGGAUCACCCAUGUCUACACCCUACAGGAUAUGAUGCGGUGAAGACCAAUUCAGAAGGGUAAGGUC	22.9 nM
CCUCAAAUGACAUGAGGAUCACCCAUGUAGCGCACAACCGCUAGAAGGACGACAAAGUCUUAUGCGUAGGAUAUAGCGAGCGCG	133 nM
UCCUCGUAUUAAGGAUAUAGAAAAGUCACAUGAGGAUCACCCAUGUCUAAGGACGCACUAUGAGUCUAGAAGGUAAUCCGGAAU	65.5 nM

Now let's try a different one.
Return reported apparent Kd; argument: CCUUAGAUACAUGAGGAUCACCCAUGUCACCAGCAACCUGACGAGGAUAUAUAGGCCAAAUAACUAUAGAAGGCGUUGACCCAA
12.4 nM
